- systemUnderTest: BTK enzyme (full-length BTK, hBTK) (Homo sapiens, UniProt Q06187)
- Construct: recombinant protein from baculovirus-transfected Sf9 cells: full-length BTK, 6HIS-tag cleaved; 6HIS (cleaved yes)
- Sequence (Q06187 whole entry): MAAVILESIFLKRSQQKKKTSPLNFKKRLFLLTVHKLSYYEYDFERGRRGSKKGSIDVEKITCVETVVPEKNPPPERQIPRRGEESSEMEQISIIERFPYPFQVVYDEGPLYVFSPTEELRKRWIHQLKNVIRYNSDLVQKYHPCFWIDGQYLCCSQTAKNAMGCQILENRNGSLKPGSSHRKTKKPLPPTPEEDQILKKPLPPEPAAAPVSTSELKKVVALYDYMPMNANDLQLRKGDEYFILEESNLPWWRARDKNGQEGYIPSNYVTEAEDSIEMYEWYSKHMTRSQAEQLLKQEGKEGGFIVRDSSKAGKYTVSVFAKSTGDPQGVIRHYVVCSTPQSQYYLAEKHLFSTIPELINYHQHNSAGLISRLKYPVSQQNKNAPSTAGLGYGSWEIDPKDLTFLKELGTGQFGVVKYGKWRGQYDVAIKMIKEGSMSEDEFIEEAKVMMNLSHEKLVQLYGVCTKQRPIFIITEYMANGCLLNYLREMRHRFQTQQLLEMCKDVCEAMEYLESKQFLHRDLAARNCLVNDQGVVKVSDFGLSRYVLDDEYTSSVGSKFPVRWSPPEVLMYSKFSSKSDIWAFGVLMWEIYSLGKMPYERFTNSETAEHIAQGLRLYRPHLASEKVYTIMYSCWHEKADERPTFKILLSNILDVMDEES
- protocolNotes: Btk enzyme activity assay (LANCE TR-FRET)
- studyConditions: 50 pM hBTK, 25 μM ATP, 60 minute compound and enzyme incubation, read-out: BTK binding IC50
pIC50: −log10 of the molar value.

{"structureSmiles": "COc1cc(C(=O)Nc2cc(C(F)(F)F)ccn2)ccc1-c1nc([C@H]2CC[C@H]3N(C2)C(=O)C2(CC2)C3(F)F)n2ccnc(N)c12", "pIC50": 8.82}
{"structureSmiles": "CCOc1cc(C(=O)Nc2cc(C(F)(F)F)ccn2)ccc1-c1nc([C@H]2CN3C(=O)[C@@H]4CCCN4C[C@@H]3CO2)n2ccnc(N)c12", "pIC50": 9.00}
{"structureSmiles": "COc1cc(C(=O)Nc2cc(C(F)(F)F)ccn2)ccc1-c1nc([C@H]2CC[C@@H]3CC4(CC4)C(=O)N3C2)n2ccnc(N)c12", "pIC50": 9.28}
{"structureSmiles": "Cc1ccnc(NC(=O)c2ccc(-c3nc([C@@H]4CC[C@H]5C(=O)C6(CC6)C(=O)N5C4)n4ccnc(N)c34)cc2)c1", "pIC50": 8.68}
{"structureSmiles": "CCOc1cc(C(=O)Nc2cc(C(F)(F)F)ccn2)ccc1-c1nc([C@H]2CN3C(=O)C4(CC4)NC[C@@H]3CO2)n2ccnc(N)c12", "pIC50": 9.62}
{"structureSmiles": "CCOc1cc(C(=O)Nc2cc(C(F)(F)F)ccn2)ccc1-c1nc([C@@H]2CC[C@H]3[C@@H](OC)C4(CC4)C(=O)N3C2)n2ccnc(N)c12", "pIC50": 8.89}
